Data provenance: patent US11098038B2

Parameter 'readout' = GI50; parameter 'system' = A498.

compound	u	GI50
Cc1ccc(NC(=O)Cc2ccc(/C=C/C(=O)c3ncc[nH]3)cc2)cc1 [Compound 20]	µM	19.9
O=C(Cc1ccc(/C=C/C(=O)c2ncc[nH]2)cc1)Nc1ccc(Cl)cc1 [Compound 25]	µM	5.48
Cn1ccnc1C(=O)/C=C/c1ccc(CC(=O)Nc2ccc(Cl)cc2)cc1 [Compound 30]	µM	25
O=C(Cc1ccc(/C=C/C(=O)c2ncc[nH]2)cc1)Nc1ccc(C(F)(F)F)cc1 [Compound 24]	µM	4.73
Cn1ccnc1C(=O)/C=C/c1ccc(CC(=O)Nc2ccc(F)cc2)cc1 [Compound 28]	µM	5.56
O=C(Cc1ccc(/C=C/C(=O)c2ncc[nH]2)cc1)Nc1ccc(F)cc1 [Compound 22]	µM	8.93
CCn1ccnc1C(=O)/C=C/c1ccc(CC(=O)Nc2ccc(F)cc2)cc1 [Compound 31]	µM	3.73
Cn1ccnc1C(=O)/C=C/c1ccc(CC(=O)Nc2ccccc2)cc1 [Compound 27]	µM	6.08

* * *

- Test system: OVCAR-5
Listed below: GI50 values for each entry.

compoundStructureString	testSystem	GI50 [µM]
O=C(Cc1ccc(/C=C/C(=O)c2ncc[nH]2)cc1)Nc1ccc(F)cc1	OVCAR-5	2.6
Cn1ccnc1C(=O)/C=C/c1ccc(CC(=O)Nc2ccccc2)cc1	OVCAR-5	4.19
O=C(Cc1ccc(/C=C/C(=O)c2ncc[nH]2)cc1)Nc1ccc(C(F)(F)F)cc1	OVCAR-5	4.89

* * *

Parameter 'readout' = GI50; parameter 'system' = SW-620.

compoundStructureString	testSystem	GI50 / nM
O=C(Cc1ccc(/C=C/C(=O)c2ncc[nH]2)cc1)Nc1ccc(Cl)cc1	SW-620	1430
Cn1ccnc1C(=O)/C=C/c1ccc(CC(=O)Nc2ccc(Cl)cc2)cc1	SW-620	1250
O=C(Cc1ccc(/C=C/C(=O)c2ncc[nH]2)cc1)Nc1ccc(F)cc1	SW-620	1430
Cn1ccnc1C(=O)/C=C/c1ccc(CC(=O)Nc2ccc(F)cc2)cc1	SW-620	1970
Cn1ccnc1C(=O)/C=C/c1ccc(CC(=O)Nc2ccccc2)cc1	SW-620	2750
CCn1ccnc1C(=O)/C=C/c1ccc(CC(=O)Nc2ccc(F)cc2)cc1	SW-620	4290
O=C(Cc1ccc(/C=C/C(=O)c2ncc[nH]2)cc1)Nc1ccc(C(F)(F)F)cc1	SW-620	1350
Cc1ccc(NC(=O)Cc2ccc(/C=C/C(=O)c3ncc[nH]3)cc2)cc1	SW-620	5220

* * *

- Tested on: OVCAR-4
// NB: equality with 4 µM counts as -1; only GI50 strictly below is 1

compoundStructureString	group
Cn1ccnc1C(=O)/C=C/c1ccc(CC(=O)Nc2ccccc2)cc1	-1
Cc1ccc(NC(=O)Cc2ccc(/C=C/C(=O)c3ncc[nH]3)cc2)cc1	-1
Cn1ccnc1C(=O)/C=C/c1ccc(CC(=O)Nc2ccc(Cl)cc2)cc1	1
O=C(Cc1ccc(/C=C/C(=O)c2ncc[nH]2)cc1)Nc1ccc(F)cc1	-1
CCn1ccnc1C(=O)/C=C/c1ccc(CC(=O)Nc2ccc(F)cc2)cc1	1
Cn1ccnc1C(=O)/C=C/c1ccc(CC(=O)Nc2ccc(F)cc2)cc1	-1
O=C(Cc1ccc(/C=C/C(=O)c2ncc[nH]2)cc1)Nc1ccc(C(F)(F)F)cc1	-1

* * *

Listed below: melting point values for each entry.

compoundStructureString	melting point [°C]
O=C(Cc1ccc(/C=C/C(=O)c2ncc[nH]2)cc1)Nc1ccc(C(F)(F)F)cc1	240.5
Cn1ccnc1C(=O)/C=C/c1ccc(CC(=O)Nc2ccc(F)cc2)cc1	213
Cc1ccc(NC(=O)Cc2ccc(/C=C/C(=O)c3ncc[nH]3)cc2)cc1	218.5
O=C(Cc1ccc(/C=C/C(=O)c2ncc[nH]2)cc1)Nc1cc(C(F)(F)F)cc(C(F)(F)F)c1	243
O=C(Cc1ccc(/C=C/C(=O)c2ncc[nH]2)cc1)Nc1cc(F)c(F)c(F)c1	255
Cn1ccnc1C(=O)/C=C/c1ccc(CC(=O)Nc2ccc(Cl)cc2)cc1	250
